Quick reference for RP-LC retention time among some compounds
# assay-summary: gradient 5% acetonitrile 3 min, to 50% in 2 min, to 85% in 15 min, held 3 min, 100 µL/min
# measurement-parameters: column: Zorbax Extend-C18 2.1 x 50 mm; eluents: water / acetonitrile, 0.1% formic acid

{"compound": "CSc1ccc(CNC(=O)C2CCCN(c3nccn4nc(-c5ccc(C)cc5C)cc34)C2)cc1 (stereo not drawn)", "RP-LC retention time [s]": 1030}
{"compound": "CCC(C)NC(=O)C1CCN(S(=O)(=O)c2cn(C(C)C)cn2)CC1 (stereo not drawn)", "RP-LC retention time [s]": 669}
{"compound": "CC(=O)N1CCc2cc(-c3ccc(C(=O)NCc4ccccn4)cc3)ccc21", "RP-LC retention time [s]": 584}
{"compound": "Cc1noc(C)c1CC(=O)N1CCc2c(c(-c3nncn3C)nn2C)C1", "RP-LC retention time [s]": 591}
{"compound": "Cc1ccc(NC(=O)CSc2nc(N3CCCCC3)nc3ccccc23)cc1Cl", "RP-LC retention time [s]": 852}
{"compound": "O=C(CN1CCOCC1)N1CCCCC1c1nc(C2CC2)no1 (stereo not drawn)", "RP-LC retention time [s]": 590}
{"compound": "CCc1c(C(=O)O)nnn1-c1ccccc1F", "RP-LC retention time [s]": 690}
{"compound": "CC(C)NC(=O)C1CCCN(S(=O)(=O)c2c[nH]c(C(=O)N3CCCCCC3)c2)C1 (stereo not drawn)", "RP-LC retention time [s]": 734}
{"compound": "O=C(NCCc1c[nH]c2ccccc12)C1CC(=O)N(CCc2ccccc2)C1 (stereo not drawn)", "RP-LC retention time [s]": 758}
{"compound": "CCOC(=O)c1[nH]c(C(=O)O)c(OC(=O)CC)c1C", "RP-LC retention time [s]": 912}
{"compound": "Clc1ccc(-c2cn3cccnc3n2)cc1", "RP-LC retention time [s]": 662}
{"compound": "O=C(NCCS(=O)(=O)N1CCN(c2ccc(F)cc2)CC1)c1cccc([N+](=O)[O-])c1", "RP-LC retention time [s]": 834}
{"compound": "COc1cccc(CN2CC=C(C(=O)N3CCN(c4ccccc4OC)CC3)CC2)c1", "RP-LC retention time [s]": 651}
{"compound": "COC1=CC(=O)O[C@H](/C=C/c2ccc3c(c2)OCO3)C1", "RP-LC retention time [s]": 809}
{"compound": "COc1cc(CNC(=O)C23CCC=C2N(C2CCCC2)C(=O)CC3)cc(OC)c1 (stereo not drawn)", "RP-LC retention time [s]": 752}
{"compound": "CC(=O)N1CCc2cc(N3CC(C(=O)N4CCN(c5ccccn5)CC4)CC3=O)ccc21 (stereo not drawn)", "RP-LC retention time [s]": 566}
{"compound": "COc1ccc(N2CCN(C(=O)c3cc4c(-c5cccs5)nn(-c5ccccc5)c4n3C)CC2)cc1", "RP-LC retention time [s]": 1120}
{"compound": "COc1cccc(S(=O)(=O)N2CCC(c3noc(-c4cnccn4)n3)C2)c1 (stereo not drawn)", "RP-LC retention time [s]": 788}
{"compound": "O=c1c2ccccc2c(-c2nc(-c3ccncc3)no2)cn1-c1cccc(Cl)c1", "RP-LC retention time [s]": 1020}
{"compound": "COc1ccc(-c2csc(NC(=O)CSc3nc4c(cc3C#N)CCCC4)n2)cc1", "RP-LC retention time [s]": 1180}
{"compound": "CCOC(=O)Cn1cc(-c2nc(-c3ccc(Br)cc3)no2)ccc1=O", "RP-LC retention time [s]": 1050}
{"compound": "CCc1ccc(Nc2nc(C(=O)NCCc3ccco3)nc3ccccc23)cc1", "RP-LC retention time [s]": 855}
{"compound": "COc1ccc(N2C=C(C(=O)N3CCOCC3)S(=O)(=O)c3ccccc32)cc1Cl", "RP-LC retention time [s]": 789}
{"compound": "CCn1c(=O)n(CC(=O)N2CCOCC2)c(=O)c2cnc(-c3ccc(Cl)cc3)nc21", "RP-LC retention time [s]": 934}
{"compound": "CCOc1nc2c(c(C)nn2-c2cccc(C)c2)c(C)c1CCC(=O)NCCc1c[nH]c2ccccc12", "RP-LC retention time [s]": 1260}
{"compound": "O=C(CN1CCN(C(=O)Nc2ccc(Br)cc2)CC1=O)NC1CCCCC1", "RP-LC retention time [s]": 735}
{"compound": "COC(=O)c1cc(C)nc2c1c(=O)n(Cc1c(F)cccc1Cl)c(=O)n2C", "RP-LC retention time [s]": 965}
{"compound": "O=C(CNC(=O)c1cc(F)cc(F)c1)Nc1nc2ccccc2[nH]1", "RP-LC retention time [s]": 642}
{"compound": "Cc1ccc(-c2nc3nc(C)cc(C)n3c2Nc2ccccc2)cc1", "RP-LC retention time [s]": 726}
{"compound": "CCOC(=O)c1sc2ncnc(N3CCN(c4ccccc4OC)CC3)c2c1C", "RP-LC retention time [s]": 1200}
{"compound": "Cn1c(=O)n(CC(=O)O)c(=O)c2c1nc1n2CCCN1c1ccc(F)cc1", "RP-LC retention time [s]": 632}
{"compound": "O=c1c2cc(-c3cccs3)nn2cnn1Cc1nc(-c2ccc(OCc3ccccc3)cc2)no1", "RP-LC retention time [s]": 1220}
{"compound": "O=C(Cn1nc(C2CC2)c2cnn(-c3ccc(F)cc3)c2c1=O)NCC1CCCO1 (stereo not drawn)", "RP-LC retention time [s]": 729}
{"compound": "O=S(=O)(c1ccc2c(c1)CCC2)N1CCC(Cc2nncn2-c2ccccc2)C1 (stereo not drawn)", "RP-LC retention time [s]": 846}
{"compound": "Nc1nccn(Cc2ccc(F)cc2F)c1=O", "RP-LC retention time [s]": 577}
{"compound": "CC(=O)c1ccc(NC(=O)CCc2c(C)nn(-c3cc(N4CCCC4)ncn3)c2C)cc1", "RP-LC retention time [s]": 769}
{"compound": "Cc1cccc(NC(=O)C2CCN(S(=O)(=O)c3cc(C(=O)N4CCCC4)cs3)CC2)c1", "RP-LC retention time [s]": 819}
{"compound": "Cn1nc(-c2ccncc2)nc1C1CN(S(=O)(=O)c2cccc(C(F)(F)F)c2)C1", "RP-LC retention time [s]": 715}
